These measurements were taken from patent US10093630B2.

experimental_target: PLA2G7 (Mus musculus)
Construct: Proteomes (mouse brain membrane fraction or cell lysates); from tissue; host or cells: mouse brain membrane fraction (or cell lysates, not specified)
Sequence (Q60963 22-440): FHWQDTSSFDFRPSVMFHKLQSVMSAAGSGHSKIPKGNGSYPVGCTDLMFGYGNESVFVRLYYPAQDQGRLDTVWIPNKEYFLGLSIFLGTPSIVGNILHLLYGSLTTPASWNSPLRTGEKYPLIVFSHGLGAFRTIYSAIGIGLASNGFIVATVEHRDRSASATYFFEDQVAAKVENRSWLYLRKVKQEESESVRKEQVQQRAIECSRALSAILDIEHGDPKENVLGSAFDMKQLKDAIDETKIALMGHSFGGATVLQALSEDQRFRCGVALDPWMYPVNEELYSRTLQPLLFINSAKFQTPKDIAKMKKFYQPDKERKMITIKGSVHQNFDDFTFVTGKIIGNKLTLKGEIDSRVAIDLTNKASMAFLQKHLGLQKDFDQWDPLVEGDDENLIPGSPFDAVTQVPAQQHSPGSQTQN
assay_remarks: In vitro competitive activity-based protein profiling (gel-based, FP-Rh or HT-01 probe)
Assay type: biochemical
recorded_conditions: 1 μM inhibitor; read-out: % Inhibition at 1 μM, D = PLA2G7
Measured inhibition at 1 µM by item

O=C(N1CCN(Cc2ccc(C(F)(F)F)cc2)CC1)n1cc(Cl)cn1: < 25%
N#Cc1cnn(C(=O)N2CCCN(C(=O)c3ccccc3)CC2)c1: < 25%
O=C(c1cnn(C(=O)N2CCN(Cc3ccncn3)CC2)c1)N1CCOCC1: < 25%
N#Cc1cnn(C(=O)N2CCN(c3ccccc3)CC2)c1: > 75%

Switching to the query record.
Provide measured inhibition at 1 µM value, entry: O=C(c1cnn(C(=O)N2CCN(Cc3ccncc3)CC2)c1)N1CCCCC1 > 75%
